Target: Substance-P receptor (Homo sapiens, UniProt P25103)
Sequence (P25103 whole entry): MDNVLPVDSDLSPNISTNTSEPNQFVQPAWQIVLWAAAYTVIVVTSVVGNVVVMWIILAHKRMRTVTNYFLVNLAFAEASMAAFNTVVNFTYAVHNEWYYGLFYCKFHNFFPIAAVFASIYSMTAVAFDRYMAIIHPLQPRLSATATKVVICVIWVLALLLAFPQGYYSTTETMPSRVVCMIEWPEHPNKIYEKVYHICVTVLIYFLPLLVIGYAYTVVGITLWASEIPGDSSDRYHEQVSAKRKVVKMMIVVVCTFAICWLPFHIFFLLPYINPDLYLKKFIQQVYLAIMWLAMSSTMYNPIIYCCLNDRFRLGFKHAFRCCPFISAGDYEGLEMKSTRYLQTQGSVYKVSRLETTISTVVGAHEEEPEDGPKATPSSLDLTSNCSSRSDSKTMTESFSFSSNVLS
Assay: Binding affinity to NK1 receptor
QUANTITY_KIND: Ki

Entry COCc1nnc(N2CC(Oc3ccc(F)cc3Cl)C2)n1-c1ccc(OC)nc1 has what Ki? 6.5 µM

* * *

Molecular target: Vasopressin V1a receptor (Homo sapiens)
Sequence (P37288 whole entry): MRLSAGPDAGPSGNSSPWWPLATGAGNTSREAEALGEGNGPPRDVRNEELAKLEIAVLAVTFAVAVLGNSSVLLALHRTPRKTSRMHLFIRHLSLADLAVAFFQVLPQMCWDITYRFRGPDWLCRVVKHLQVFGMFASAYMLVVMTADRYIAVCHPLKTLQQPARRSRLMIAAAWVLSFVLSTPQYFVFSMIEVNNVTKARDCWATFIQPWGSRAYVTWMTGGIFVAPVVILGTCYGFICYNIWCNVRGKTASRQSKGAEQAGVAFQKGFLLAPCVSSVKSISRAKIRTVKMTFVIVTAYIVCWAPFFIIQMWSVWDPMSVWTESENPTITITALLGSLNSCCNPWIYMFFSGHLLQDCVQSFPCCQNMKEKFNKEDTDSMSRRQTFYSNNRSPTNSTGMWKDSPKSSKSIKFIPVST
Assay: Antagonist activity at human cloned vasopressin V1a receptor by cell based beta lactamase assay
Binning scheme for Ki: small value (below 0.5 µM), mid value (0.5 µM to below 1 µM), large value (1 µM or more)

Category of COc1ccc(-n2c(C)nnc2N2CC[C@@H](Oc3ccc(F)cc3C)C2)cn1 , please. mid value

Category of COc1ccc(-n2c(C)nnc2N2CCC(Oc3ccccc3C)CC2)cn1 , please. small value

Category of COCc1nnc(N2CC(Oc3ccc(F)cc3Cl)C2)n1-c1ccc(OC)nc1 , please. large value

Category of COc1ccc(-n2c(C)nnc2N2CC[C@@H](Oc3ccccc3)C2)cn1 , please. large value

Category of COc1ccc(-n2c(C)nnc2N2CC(Oc3ccc(F)cc3Cl)C2)cn1 , please. large value

Category of COCc1nnc(N2CCC(Oc3ccccc3C)CC2)n1-c1ccc(OC)nc1 , please. small value

Category of COc1ccc(-n2c(C)nnc2N2CCC(Oc3ccccc3)CC2)cn1 , please. small value

Category of COc1ccc(-n2c(C)nnc2N2CC(Oc3ccccc3)C2)cn1 , please. large value

Category of COc1ccc(-n2c(C)nnc2N2CC(Oc3ccc(F)cc3C)C2)cn1 , please. mid value

Category of COCc1nnc(N2CC(Oc3ccc(F)cc3C)C2)n1-c1ccc(OC)nc1 , please. mid value

Category of COCc1nnc(N2CC(Oc3ccccc3Cl)C2)n1-c1ccc(OC)nc1 , please. large value

Category of COCc1nnc(N2CC[C@H](Oc3ccccc3C)C2)n1-c1ccc(OC)nc1 , please. mid value

Category of COc1ccc(-n2c(C)nnc2N2CCC(Oc3ccc(F)cc3C)CC2)cn1 , please. small value

Category of COc1ccc(-n2c(C)nnc2N2CCC(Oc3cc(F)cc(F)c3C)CC2)cn1 , please. small value

Category of COc1ccc(-n2c(C)nnc2N2CC[C@@H](Oc3ccccc3C)C2)cn1 , please. mid value

Category of COCc1nnc(N2CC[C@@H](Oc3ccccc3C)C2)n1-c1ccc(OC)nc1 , please. small value

Category of COc1ccc(-n2c(C)nnc2N2CC(Oc3cc(F)ccc3C)C2)cn1 , please. large value

Category of COc1ccc(-n2c(C)nnc2N2CC(Oc3ccccc3Cl)C2)cn1 , please. large value

Category of COCc1nnc(N2CC[C@@H](Oc3ccc(F)cc3C)C2)n1-c1ccc(OC)nc1 , please. mid value

* * *

Tested on: Liver microsomes
Experiment: Intrinsic clearance in human liver microsomes
Format: ADME, Microsome
For each entry below, report its clearance value.

Entry COCc1nnc(N2CC(Oc3ccc(F)cc3Cl)C2)n1-c1ccc(OC)nc1 has what clearance? 10 µL/min/mg

Entry COCc1nnc(N2CC(Oc3ccccc3Cl)C2)n1-c1ccc(OC)nc1 has what clearance? 21 µL/min/mg

Entry COc1ccc(-n2c(C)nnc2N2CCC(Oc3cccc(F)c3C)CC2)cn1 has what clearance? 24 µL/min/mg

Entry COCc1nnc(N2CC[C@@H](Oc3ccc(F)cc3C)C2)n1-c1ccc(OC)nc1 has what clearance? > 440 µL/min/mg

Entry COc1ccc(-n2c(C)nnc2N2CC[C@@H](Oc3ccc(F)cc3C)C2)cn1 has what clearance? 95 µL/min/mg

Entry COc1ccc(-n2c(C)nnc2N2CCC(Oc3ccc(F)cc3C)CC2)cn1 has what clearance? 23 µL/min/mg

Entry COc1ccc(-n2c(C)nnc2N2CC(Oc3ccc(F)cc3Cl)C2)cn1 has what clearance? 22 µL/min/mg

Entry COc1ccc(-n2c(C)nnc2N2CC(Oc3ccccc3)C2)cn1 has what clearance? < 7 µL/min/mg

Entry COCc1nnc(N2CC[C@@H](Oc3cc(F)cc(F)c3C)C2)n1-c1ccc(OC)nc1 has what clearance? 107 µL/min/mg

Entry COc1ccc(-n2c(C)nnc2N2CC[C@@H](Oc3ccccc3C)C2)cn1 has what clearance? 32 µL/min/mg

* * *

Assay: Clearance in dog at 0.2 mg/kg, po
Format: ADME, organism-based, Canis lupus familiaris
Set-up: dose 0.2 mg/kg, route oral
Settings: in vivo
QUANTITY_KIND: CL/F (mL/min/kg)
Write down the numeric answer in mL/min/kg and omit the unit.

Entry COCc1nnc(N2CC(Oc3ccc(F)cc3Cl)C2)n1-c1ccc(OC)nc1 has what CL/F? 8

* * *

Target: Oxytocin receptor (Homo sapiens, UniProt P30559)
Sequence (P30559 whole entry): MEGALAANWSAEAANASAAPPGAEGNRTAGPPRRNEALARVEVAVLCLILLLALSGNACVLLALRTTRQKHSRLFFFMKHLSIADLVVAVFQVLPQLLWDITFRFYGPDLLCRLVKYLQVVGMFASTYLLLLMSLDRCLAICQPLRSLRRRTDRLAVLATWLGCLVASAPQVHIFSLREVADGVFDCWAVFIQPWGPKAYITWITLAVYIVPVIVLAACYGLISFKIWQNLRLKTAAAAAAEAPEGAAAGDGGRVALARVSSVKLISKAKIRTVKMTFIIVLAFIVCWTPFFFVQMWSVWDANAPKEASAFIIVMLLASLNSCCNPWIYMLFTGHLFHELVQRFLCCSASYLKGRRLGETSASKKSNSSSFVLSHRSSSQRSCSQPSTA
Experiment: Antagonist activity at human cloned oxytocin receptor by cell based beta lactamase assay
For each entry below, report its Ki value.
Write down the numeric answer in nM and omit the unit.

Entry COc1ccc(-n2c(C)nnc2N2CCC(Oc3ccccc3)CC2)cn1 has what Ki? 114

Entry COc1ccc(-n2c(C)nnc2N2CCC(Oc3cccc(F)c3C)CC2)cn1 has what Ki? 2.6

Entry COCc1nnc(N2CC(Oc3ccc(F)cc3C)C2)n1-c1ccc(OC)nc1 has what Ki? 18.4

Entry COc1ccc(-n2c(C)nnc2N2CC[C@@H](Oc3ccc(F)cc3C)C2)cn1 has what Ki? 31.8

* * *

Assay: Aqueous solubility at pH 7.5
Assay type: physicochemical
Conditions: buffer
QUANTITY_KIND: solubility (µg/mL)
Write down the numeric answer in µg/mL and omit the unit.

Entry COCc1nnc(N2CC(Oc3ccc(F)cc3Cl)C2)n1-c1ccc(OC)nc1 has what solubility? 59

* * *

Experiment: Clearance in rat at 2 mg/kg, po
Type: ADME, organism-based
Parameters: dose 2 mg/kg, route oral
Details: in vivo
QUANTITY_KIND: CL/F (mL/min/kg)
Write down the numeric answer in mL/min/kg and omit the unit.

Entry COCc1nnc(N2CC(Oc3ccc(F)cc3Cl)C2)n1-c1ccc(OC)nc1 has what CL/F? 36
